Biological target: HDAC2 Human recombinant C-terminal FLAG-tag (Homo sapiens, UniProt Q92769)
Construct: FLAG (C); purchased BPS Bioscience 50052
Sequence (Q92769 whole entry): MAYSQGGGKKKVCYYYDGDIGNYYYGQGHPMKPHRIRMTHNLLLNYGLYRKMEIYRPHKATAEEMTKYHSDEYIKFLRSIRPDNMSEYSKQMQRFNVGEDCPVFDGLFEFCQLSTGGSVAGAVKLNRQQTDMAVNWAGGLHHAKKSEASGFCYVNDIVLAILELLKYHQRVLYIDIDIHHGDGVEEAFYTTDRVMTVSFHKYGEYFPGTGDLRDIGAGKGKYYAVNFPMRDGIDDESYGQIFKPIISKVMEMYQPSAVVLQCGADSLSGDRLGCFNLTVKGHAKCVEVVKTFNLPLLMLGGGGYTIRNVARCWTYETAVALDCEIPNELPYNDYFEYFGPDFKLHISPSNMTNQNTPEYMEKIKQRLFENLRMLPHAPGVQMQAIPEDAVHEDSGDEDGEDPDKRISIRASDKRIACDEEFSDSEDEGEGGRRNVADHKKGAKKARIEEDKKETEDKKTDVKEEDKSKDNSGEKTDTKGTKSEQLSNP
Test: Measurement of HDAC2 enzyme inhibitory activity (HTRF)
Assay type: biochemical
Details: recombinant HDAC2, H3K9ac peptide, 3 hours room temperature; read-out: HDAC2 IC50
Quantity Kind: pIC50
Schema: pIC50 number; meaning minus log10 of the concentration expressed in molar units.

{"columns": ["Compound", "pIC50"],
 "data": [
  ["CCc1cnc(C(=O)Nc2cc(-c3cnn(C)c3)ccc2N)cn1 [Compound I-250]", 6.77],
  ["Cn1cc(-c2ccc(C(=O)Nc3nc(-n4cccc4)ccc3N)nc2)cn1 [Compound I-025]", 6.43],
  ["Nc1ccc(-c2ccc(F)nc2)cc1NC(=O)c1ccc(Cl)nn1 [Compound I-264]", 6.57],
  ["COc1cnc(C(=O)Nc2cc(-c3cncs3)ccc2N)cn1 [Compound I-099]", 7.14]
]}

Entry COc1ccc(C(=O)Nc2cc(-c3cnn(C)c3)ccc2N)nc1 [Compound I-140] under HDAC2 Human recombinant C-terminal FLAG-tag (Homo sapiens, UniProt Q92769) had pIC50 of 6.66

// pIC50 (HDAC2 Human recombinant C-terminal FLAG-tag (Homo sapiens, UniProt Q92769)) for CCOc1ccc(C(=O)Nc2cc(-c3ccc(F)nc3)ccc2N)nn1 [Compound I-268] = 6.89

* * *

Biological target: HDAC2 Human recombinant C-terminal FLAG-tag (Homo sapiens)
Construct: FLAG (C); purchased BPS Bioscience 50052
Test: Measurement of HDAC2 enzyme inhibitory activity (HTRF)
Type: biochemical
Conditions: recombinant HDAC2, H3K9ac peptide, 3 hours room temperature; read-out: HDAC2 IC50
Parameter: IC50. Scope: all listed entries.

These recorded examples may help you get a feel for the data.
{"columns": ["Molecule", "Recorded Result"],
 "data": [
  ["Nc1ccc(-c2ccc(F)nc2)cc1NC(=O)c1cnc(N2CC3(CCC3)C2)cn1 [Compound I-223]", "90 nM"],
  ["Cn1cc(-c2ccc(N)c(NC(=O)c3cc4c(cn3)OCCO4)c2)cn1 [Compound I-098]", "240 nM"],
  ["Cc1cnc(C(=O)Nc2cc(-c3cnn(C)c3)ccc2N)cn1 [Compound I-138]", "200 nM"],
  ["Nc1ccc(-c2cncs2)cc1NC(=O)c1cc(Cl)c(Cl)cn1 [Compound I-072]", "480 nM"],
  ["CC(C)(C)c1ccc(C(=O)Nc2cc(-c3ccc(F)nc3)ccc2N)nc1 [Compound I-191]", "240 nM"]
]}

Measured IC50, Nc1ccc(-c2cncs2)cc1NC(=O)c1cc2c(cn1)OCCO2 [Compound I-073] : 120 nM

# IC50 (molecule: Nc1ccc(-c2cncs2)cc1NC(=O)c1cc2ccncc2cn1 [Compound I-060] ) is 47 nM

Input Nc1ccc(-c2cncs2)cc1NC(=O)c1cnc(OCF)cn1 [Compound I-100] . Output IC50: 100 nM

For reference, reported IC50 for COCc1ccc(C(=O)Nc2cc(-c3ccc(F)nc3)ccc2N)nc1 [Compound I-208] stands at 150 nM

Just so you know, measured IC50 for Nc1ccc(-c2ccc(F)nc2)cc1NC(=O)c1cnc(CF)cn1 [Compound I-134] came out at 210 nM

For record Cn1cc(-c2cnc(C(=O)Nc3nc(-n4cccc4)ccc3N)cn2)cn1 [Compound I-023] the listed IC50 is 180 nM

Looking up C#Cc1ccc(C(=O)Nc2cc(-c3cncs3)ccc2N)nc1 [Compound I-058] , I see its IC50 listed as 130 nM

Per the record, Nc1ccc(-c2ccc(F)nc2)cc1NC(=O)c1ccc(C(F)F)cn1 [Compound I-144] has IC50 of 230 nM

Cc1nnc(-c2ccc(C(=O)Nc3cc(-c4ccc(F)nc4)ccc3N)nc2)o1 [Compound I-133] yielded IC50 of 110 nM

Measured IC50, Nc1ccc(-n2ccc(F)c2)cc1NC(=O)c1cnc(N2CCCOCC2)cn1 [Compound I-298] : 130 nM

// CCc1cnc(C(=O)Nc2nc(-n3cccc3)ccc2N)cn1 [Compound I-261] : IC50 value = 260 nM

Consider Nc1ccc(-c2ccc(F)nc2)cc1NC(=O)c1cnc(N2CCC2(CO)CCl)cn1 (centres unmarked) [Compound I-225] . Its measured IC50 is 90 nM

For record Cc1cnc(C(=O)Nc2nc(-c3ccccc3)ccc2N)cn1 [Compound I-169] the listed IC50 is 360 nM

Record Cn1cc(-c2ccc(N)c(NC(=O)c3cnc(C(C)(C)C)cn3)c2)cn1 [Compound I-204] , field IC50: 340 nM

// IC50 lookup, molecule = Nc1ccc(-c2ccc(F)nc2)cc1NC(=O)c1cnc(OCF)cn1 [Compound I-121] , result: 240 nM

IC50 measured on COCCOc1ccc(C(=O)Nc2cc(-c3cnn(C)c3)ccc2N)nc1 [Compound I-180] = 210 nM

Measured IC50 of Nc1ccc(-c2ccc(F)nc2)cc1NC(=O)c1ccc(N2CCC2)nn1 [Compound I-266] : 140 nM

For reference, reported IC50 for COCCOc1ccc(C(=O)Nc2nc(-n3cccc3)ccc2N)nc1 [Compound I-182] stands at 350 nM

IC50 recorded for this molecule, CCOc1ccc(C(=O)Nc2cc(-c3ccc(F)nc3)ccc2N)nc1 [Compound I-164] , is 210 nM

Given item Cn1cc(-c2ccc(C(=O)Nc3cc(-c4cccs4)ccc3N)nc2)nn1 [Compound I-001] , the value recorded as its IC50 is 56 nM

Reported IC50 ( Cn1cc(-c2cnc(C(=O)Nc3cc(-c4ccc(F)nc4)ccc3N)cn2)cn1 [Compound I-080] ) = 48 nM

Field IC50 (entry Cn1cc(-c2cnc(C(=O)Nc3nc(-c4ccco4)ccc3N)cn2)cn1 [Compound I-026] ) reads 320 nM

Entry Nc1ccc(-c2cncs2)cc1NC(=O)c1ccc2[nH]ccc2n1 [Compound I-081] , IC50 reported as 280 nM

Measured IC50 of Nc1ccc(-c2ccc(F)nc2)cc1NC(=O)c1ccc(N2CCOCC2)nn1 [Compound I-262] : 100 nM

* * *

Below, each entry is listed alongside its reported % inhibition of tail peak current (IKr).
Molecular target: human ether-a-go-go related gene (hERG) channel (Homo sapiens)
Construct: expressed in transfected cells; host or cells: CHO cells
Sequence (Q12809 whole entry): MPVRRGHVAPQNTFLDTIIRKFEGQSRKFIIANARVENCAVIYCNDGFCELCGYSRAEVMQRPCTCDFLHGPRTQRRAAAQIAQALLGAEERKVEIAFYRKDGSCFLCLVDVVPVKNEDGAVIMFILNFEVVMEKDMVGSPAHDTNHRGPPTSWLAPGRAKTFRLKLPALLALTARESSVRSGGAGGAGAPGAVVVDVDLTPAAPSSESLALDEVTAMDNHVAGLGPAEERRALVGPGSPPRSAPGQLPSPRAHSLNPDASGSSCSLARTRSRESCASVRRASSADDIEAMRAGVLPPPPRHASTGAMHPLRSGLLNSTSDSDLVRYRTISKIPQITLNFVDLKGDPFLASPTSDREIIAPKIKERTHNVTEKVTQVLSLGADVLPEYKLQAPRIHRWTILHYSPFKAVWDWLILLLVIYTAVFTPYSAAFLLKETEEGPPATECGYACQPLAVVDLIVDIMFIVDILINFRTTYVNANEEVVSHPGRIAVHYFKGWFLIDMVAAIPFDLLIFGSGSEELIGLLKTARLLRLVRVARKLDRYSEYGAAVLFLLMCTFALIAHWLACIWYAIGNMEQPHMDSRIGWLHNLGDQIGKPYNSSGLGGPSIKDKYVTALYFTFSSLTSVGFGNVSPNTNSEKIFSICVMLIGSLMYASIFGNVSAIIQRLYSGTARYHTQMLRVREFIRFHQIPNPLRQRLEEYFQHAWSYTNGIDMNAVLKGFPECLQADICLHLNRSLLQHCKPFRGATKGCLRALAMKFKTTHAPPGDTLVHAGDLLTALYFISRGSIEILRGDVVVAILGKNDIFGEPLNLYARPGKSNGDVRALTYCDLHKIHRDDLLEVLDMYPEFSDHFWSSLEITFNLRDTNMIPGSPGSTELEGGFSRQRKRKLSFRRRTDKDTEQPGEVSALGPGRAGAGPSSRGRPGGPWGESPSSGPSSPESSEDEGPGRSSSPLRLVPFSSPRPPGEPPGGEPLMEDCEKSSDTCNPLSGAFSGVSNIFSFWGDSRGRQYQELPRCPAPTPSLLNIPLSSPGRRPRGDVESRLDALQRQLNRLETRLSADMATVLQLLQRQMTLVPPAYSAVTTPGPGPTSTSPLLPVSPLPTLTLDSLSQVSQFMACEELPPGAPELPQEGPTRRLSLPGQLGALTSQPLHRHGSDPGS
Experiment: hERG test (whole cell patch clamp)
Assay type: cell-based
Details: CHO cells expressing hERG; concentration not given
Report the figure in % without appending any unit label.

{"columns": ["Compound", "Unit Name", "% inhibition of tail peak current (IKr)"],
 "data": [
  ["Cn1cc(-c2cnc(C(=O)Nc3cc(-c4cccs4)ccc3N)cn2)cn1", "%", 14.3]
]}

Reported % inhibition of tail peak current (IKr) of Cn1cc(-c2ccc(C(=O)Nc3cc(-c4cccs4)ccc3N)nc2)cn1 : 17.1

For reference, reported % inhibition of tail peak current (IKr) for N#Cc1ccc(C(=O)Nc2cc(-c3ccc(F)nc3)ccc2N)nc1 stands at 30

* * *

System: HDACs other than HDAC2 (HDAC2 knockout K562 cells)
Test: Evaluation of HDAC2 selectivity: H3K9 histone acetylation in HDAC2 knockout K562 cells (AlphaLISA);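 also: 0% inhibition equals DMSO-treated group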
Assay type: cell-based
Conditions: Homo sapiens, maximum concentration 83.3 μM, 100% = SAHA-treated group, read-out: maximum inhibition rate (H3K9 histone acetylation)
Description: Test Example 3: Evaluation of HDAC2 Selectivity K562 cells were cultured in RPMI1640 medium (SIGMA, R8758) containing 10% FBS (Hyclone, SH30070.03) and 1% penicillin streptomycin (Nacalai Tesque, 26252-94). […] The cells after transfection were subjected to limiting dilution, and DNA sequencing was performed on the cell clones in which mutations were detected by the PCR method. […] It was confirmed that the expression of HDAC2 was not detected by Western blotting in the prepared cells. […]
Reported inhibition at up to 83.3 µM values are given for each entry in this list.
Your answer should be a plain number; it is taken to be in %.

{"columns": ["Compound", "Quantity Kind", "Unit Name", "Recorded Result"],
 "data": [
  ["CCc1cnc(C(=O)Nc2cc(-c3cnn(C)c3)ccc2N)cn1", "inhibition at up to 83.3 µM", "%", 5],
  ["Cn1cc(-c2cnc(C(=O)Nc3nc(-n4cccc4)ccc3N)cn2)cn1", "inhibition at up to 83.3 µM", "%", 8],
  ["COc1ccc(C(=O)Nc2cc(-c3cnn(C)c3)ccc2N)nn1", "inhibition at up to 83.3 µM", "%", 3],
  ["Nc1ccc(-c2ccc(F)nc2)cc1NC(=O)c1cnc(OC(F)F)cn1", "inhibition at up to 83.3 µM", "%", 6],
  ["Nc1ccc(-c2ccc(F)nc2)cc1NC(=O)c1ccc(C(F)F)cn1", "inhibition at up to 83.3 µM", "%", 7],
  ["N#Cc1ccc(C(=O)Nc2cc(-c3ccc(F)nc3)ccc2N)nc1", "inhibition at up to 83.3 µM", "%", 6],
  ["Nc1ccc(-c2ccccc2)nc1NC(=O)c1cnc(C2CC2)cn1", "inhibition at up to 83.3 µM", "%", 7],
  ["Cn1cc(-c2ccc(N)c(NC(=O)c3cnc(-c4cnn(C)c4)cn3)c2)cn1", "inhibition at up to 83.3 µM", "%", 8]
]}

Noted for CN(C)c1cnc(C(=O)Nc2cc(-c3cnn(C)c3)ccc2N)cn1 : its inhibition at up to 83.3 µM reads 9

Value of measured inhibition at up to 83.3 µM for the entry Nc1ccc(-c2ccc(F)nc2)nc1NC(=O)c1cnc(C2CC2)cn1 : 7

// field: inhibition at up to 83.3 µM; key: Nc1ccc(-c2ccc(F)nc2)cc1NC(=O)c1ccc(OCF)cn1 ; value = 8

// inhibition at up to 83.3 µM value for CCOc1cnc(C(=O)Nc2cc(-c3ccc(F)nc3)ccc2N)cn1 : 8

The reported value for Cn1cc(-c2ccc(N)c(NC(=O)c3cc4ccccc4cn3)c2)cn1 in terms of inhibition at up to 83.3 µM is 6

Per the records, this compound ( Cn1cc(-c2cnc(C(=O)Nc3cc(-c4ccc(F)nc4)ccc3N)cn2)cn1 ) has inhibition at up to 83.3 µM equal to 7

Please fill in: inhibition at up to 83.3 µM reported for COc1ccc(C(=O)Nc2cc(-c3ccc(F)nc3)ccc2N)nc1 = 9
